- Test system: HepG2
- assay text: cytotoxicity call (relative viability < 0.9)
- assay setup: 10 µM
Screen size: about 39,000 compounds; about 3,300 (8.5%) were called active. The entries come from a sample that favours actives as a whole.
API: response.call in class 1 for active, class 0 for inactive

Examples with answers:
1. C[C@@H]1CN([C@H](C)CO)C(=O)Cc2cc(NC(=O)Nc3ccc(C(F)(F)F)cc3)ccc2O[C@H]1CN(C)Cc1ccc(Oc2ccccc2)cc1: class 0
2. C[C@@H]1CN([C@@H](C)CO)C(=O)Cc2cc(NC(=O)Nc3ccc(C(F)(F)F)cc3)ccc2O[C@@H]1CN(C)Cc1ccc(Oc2ccccc2)cc1: class 1

Write down the call the test reported for this compound. Item: `CO[C@H]1O[C@H](CO)[C@@H](OC(=O)Nc2ccccc2)[C@@H]2OC(=O)[C@H](Cc3cccc(Br)c3)C/C=C/C[C@@H](Cc3cccc(Br)c3)C(=O)O[C@@H]12`
class 0

Write down the call the test reported for this compound. Item: `CCN(CC)CCNc1ccc(CO)c2sc3ccccc3c(=O)c12`
class 1

Write down the call the test reported for this compound. Item: `COc1ccc(CN(C)C[C@@H]2OCCCC[C@H](C)Oc3ccc(NC(=O)NC(C)C)cc3C(=O)N([C@H](C)CO)C[C@@H]2C)cc1`
class 0

Write down the call the test reported for this compound. Item: `O=C(O)c1ccc[nH]1`
class 0

Write down the call the test reported for this compound. Item: `C[C@H](CO)N1C[C@H](C)[C@@H](CN(C)Cc2ccc(Oc3ccccc3)cc2)Oc2ccc(NC(=O)Nc3ccc(C(F)(F)F)cc3)cc2CC1=O`
class 1

Write down the call the test reported for this compound. Item: `Cc1noc(C)c1S(=O)(=O)Nc1ccc2c(c1)C(=O)N([C@H](C)CO)C[C@@H](C)[C@H](CN(C)CC1CC1)O2`
class 0

###

- Test system: HepG2
- assay text: cytotoxicity call (relative viability < 0.9)
- assay setup: 10 µM
Among all 39,000 compounds or so, about 3,300 (8.5%) were called active. Many of the other results were omitted from the sample, so actives are more common in it than they were.
API: response.call in active, inactive

Examples with answers:
1. C[C@H](CO)N1C[C@H](C)[C@H](CN(C)C(=O)Nc2cccc3ccccc23)OCCCC[C@H](C)Oc2ccc(NS(=O)(=O)c3ccc(Cl)cc3)cc2C1=O: inactive
2. O[C@@H](CCl)CN1CC[N+]2(CC1)CC[N+]1(CCN(C[C@@H](O)CCl)CC1)CC2: inactive
3. C[C@H]1CN([C@@H](C)CO)C(=O)Cc2cc(NC(=O)Nc3cccc4ccccc34)ccc2O[C@@H]1CN(C)Cc1ccc(Oc2ccccc2)cc1: inactive

Write down the call the test reported for this compound. Item: `C[C@H](CO)N1C[C@H](C)[C@@H](CN(C)Cc2ccc(Oc3ccccc3)cc2)Oc2ccc(NC(=O)Nc3cccc4ccccc34)cc2CC1=O`
active

Write down the call the test reported for this compound. Item: `C[C@H](CO)N1C[C@H](C)[C@H](CN(C)Cc2ccc(Oc3ccccc3)cc2)Oc2ccc(NC(=O)Nc3cccc4ccccc34)cc2CC1=O`
inactive

Write down the call the test reported for this compound. Item: `CC(C)CNC(=O)C(=O)NCc1ccccn1`
inactive

Write down the call the test reported for this compound. Item: `C[C@@H]1CN([C@H](C)CO)C(=O)c2cc(NC(=O)Nc3ccc4c(c3)OCO4)ccc2O[C@@H](C)CCCCO[C@H]1CN(C)S(=O)(=O)c1ccc(Cl)cc1`
active

Write down the call the test reported for this compound. Item: `COc1ccc(NC(=O)Nc2ccc3c(c2)C(=O)N([C@H](C)CO)C[C@H](C)[C@@H](CN(C)CC2CC2)OCCCC[C@@H](C)O3)cc1`
inactive

Write down the call the test reported for this compound. Item: `C[C@@H]1CCCCO[C@@H](CN(C)S(=O)(=O)c2ccc(Cl)cc2)[C@@H](C)CN([C@@H](C)CO)C(=O)c2cc(NC(=O)Nc3ccc4c(c3)OCO4)ccc2O1`
inactive

Write down the call the test reported for this compound. Item: `C[C@H](CO)N1C[C@H](C)[C@@H](CN(C)S(=O)(=O)c2cccs2)Oc2ccc(NC(=O)Nc3cccc4ccccc34)cc2C1=O`
inactive

Write down the call the test reported for this compound. Item: `C[C@@H]1CCCCO[C@H](CN(C)S(=O)(=O)c2ccc(Cl)cc2)[C@@H](C)CN([C@@H](C)CO)C(=O)c2cc(NC(=O)Nc3ccc4c(c3)OCO4)ccc2O1`
inactive

Write down the call the test reported for this compound. Item: `C[C@H]1CN([C@@H](C)CO)C(=O)Cc2cc(NC(=O)Nc3cccc4ccccc34)ccc2O[C@H]1CN(C)S(=O)(=O)c1ccc(F)cc1`
inactive

Write down the call the test reported for this compound. Item: `C[C@@H]1CN([C@@H](C)CO)C(=O)Cc2cc(NC(=O)Nc3cccc4ccccc34)ccc2O[C@H]1CN(C)Cc1ccc(Oc2ccccc2)cc1`
inactive

Write down the call the test reported for this compound. Item: `C[C@H]1CCCCO[C@H](CN(C)S(=O)(=O)c2ccccc2)[C@@H](C)CN([C@@H](C)CO)C(=O)c2cc(NC(=O)Nc3ccc4c(c3)OCO4)ccc2O1`
active

###

- Test system: HepG2
- assay text: cytotoxicity call (relative viability < 0.9)
- assay setup: 10 µM
Out of some 39,000 compounds screened, about 3,300 (8.5%) were called active. Shown is part of a subset that was picked to be rich in actives.
API: response.call in 1 (yes) (active), 0 (no) (inactive)

Examples with answers:
1. C[C@@H]1CCCCO[C@H](CN(C)S(=O)(=O)c2ccc(Cl)cc2)[C@@H](C)CN([C@H](C)CO)C(=O)c2cc(NS(=O)(=O)c3cccs3)ccc2O1: 0 (no)
2. C[C@@H]1CN([C@H](C)CO)C(=O)c2cc(NC(=O)C3CCCCC3)ccc2O[C@@H](C)CCCCO[C@@H]1CN(C)Cc1ccc(C(=O)O)cc1: 0 (no)

# ---- query compound ----
Write down the call the test reported for this compound. Item: `C[C@@H]1CN([C@H](C)CO)C(=O)c2cc(NS(=O)(=O)c3cccs3)ccc2O[C@@H](C)CCCCO[C@@H]1CN(C)S(=O)(=O)c1ccc(Cl)cc1`
1 (yes)

###

- System: HepG2
- assay text: cytotoxicity call (relative viability < 0.9)
- assay setup: 10 µM
The whole screen tested about 39,000 compounds, of which about 3,300 (8.5%) were called active. For the sample, actives were picked, then their nearest neighbours and some compounds at random.
API: response.call in active, inactive

1) C[C@@H]1CN([C@@H](C)CO)C(=O)c2cc(NC(=O)Nc3ccc(C(F)(F)F)cc3)ccc2O[C@@H]1CN(C)Cc1ccc2c(c1)OCO2: active

Write down the call the test reported for this compound. Item: `C[C@H]1CN([C@@H](C)CO)C(=O)c2cc(NC(=O)Nc3ccc4c(c3)OCO4)ccc2O[C@H]1CN(C)Cc1ccc(C(F)(F)F)cc1`
inactive

Write down the call the test reported for this compound. Item: `C[C@@H]1CN([C@H](C)CO)C(=O)c2cc(NC(=O)Nc3ccc(C(F)(F)F)cc3)ccc2O[C@@H]1CN(C)Cc1ccc2c(c1)OCO2`
active

Write down the call the test reported for this compound. Item: `C[C@@H]1CN([C@@H](C)CO)C(=O)c2cc(NC(=O)Nc3ccc4c(c3)OCO4)ccc2O[C@H]1CN(C)Cc1ccc(C(F)(F)F)cc1`
inactive

###

- Test system: HepG2
- assay text: cytotoxicity call (relative viability < 0.9)
- assay setup: 10 µM
In all, about 39,000 compounds went through this assay and about 3,300 (8.5%) were called active. The sample holds actives, similar compounds and a random draw of the others, so the mix is not that of the screen.
observable: cytotoxicity call

Worked examples, 6 compounds total:
1) C[C@H](CO)N1C[C@H](C)[C@H](CN(C)Cc2ccccc2)OCCCC[C@H](C)Oc2ccc(NC(=O)NC3CCCCC3)cc2C1=O: inactive
2) CCCNC(=O)N1C[C@H](O)COC[C@H]2O[C@@H](CC(=O)NCCCN3CCOCC3)CC[C@@H]21: inactive
3) O=C(C[C@@H]1CC[C@H]2[C@@H](COC[C@@H](O)CN2C(=O)c2ccc3c(c2)OCO3)O1)NCCN1CCCCC1: active
4) CNC(=O)C[C@H]1CC[C@@H]2[C@H](COC[C@@H](O)CN2C(=O)c2ccc3c(c2)OCO3)O1: active
5) C[C@H](CO)N1C[C@H](C)[C@@H](CN(C)S(=O)(=O)c2ccc(Cl)cc2)Oc2c(NC(=O)Nc3cccc4ccccc34)cccc2C1=O: active
6) CNC(=O)C[C@@H]1CC[C@H]2[C@@H](COC[C@H](O)CN2C(=O)c2ccc3c(c2)OCO3)O1: inactive

// next entry
// fetch cytotoxicity call; item: `CCOC(=O)N1CCC(O)CC1` ; system: HepG2
inactive

###

- Tested on: HepG2
- assay text: cytotoxicity call (relative viability < 0.9)
- assay setup: 10 µM
The whole screen tested about 39,000 compounds, of which about 3,300 (8.5%) were called active. The full list was thinned out, with actives kept by preference.
API: response.call in active, inactive

1) C[C@@H]1CN([C@@H](C)CO)C(=O)c2cccc(NC(=O)CCCCCC(=O)Nc3ccccc3N)c2O[C@H]1CN(C)C(=O)Nc1ccc(C(F)(F)F)cc1: inactive
2) C[N+](C)(C)CCCCNC(=O)[C@H]1C[C@H]2C(=O)N[C@@H](CCCC[N+](C)(C)C)C(=O)N2[C@H]1c1ccc(O)cc1: inactive
3) C[C@H]1CN([C@@H](C)CO)C(=O)c2cccc(NC(=O)C3CCCCC3)c2O[C@@H]1CN(C)Cc1ccc(C(F)(F)F)cc1: inactive
4) C[C@@H]1CN([C@H](C)CO)C(=O)c2cc(NC(=O)Nc3cccc4ccccc34)ccc2O[C@@H](C)CCCCO[C@H]1CN(C)Cc1ccc(C(F)(F)F)cc1: inactive
5) Cc1ccc(S(=O)(=O)N(C)C[C@@H]2Oc3ccc(NC(=O)Cn4cnnn4)cc3C(=O)N([C@@H](C)CO)C[C@@H]2C)cc1: inactive
6) Cc1cccc(C)c1OC[C@@H](C)N: inactive
7) Cc1cccc2ccccc12: inactive
8) C[C@H]1CN([C@@H](C)CO)C(=O)Cc2cc(NC(=O)Nc3cccc4ccccc34)ccc2O[C@H]1CN(C)C(=O)Nc1ccc(F)cc1: inactive
9) COc1ccc(S(=O)(=O)N(C)C[C@@H]2OCCCC[C@@H](C)Oc3ccc(NS(=O)(=O)c4cn(C)cn4)cc3C(=O)N([C@H](C)CO)C[C@@H]2C)cc1: inactive
10) CCCNC(=O)N1C[C@H](C)[C@@H](OC)CN(C)C(=O)c2cc(NS(=O)(=O)CC(F)(F)F)ccc2OC[C@H]1C: inactive

Write down the call the test reported for this compound. Item: Cc1cccc(C)c1OCC(C)N.Cl (stereo not given)
active

Write down the call the test reported for this compound. Item: `C[C@@H]1CCCCO[C@@H](CN(C)Cc2ccc(C(=O)O)cc2)[C@@H](C)CN([C@@H](C)CO)C(=O)c2cc(NC(=O)Nc3cccc4ccccc34)ccc2O1`
inactive

Write down the call the test reported for this compound. Item: `C[C@@H]1CN([C@@H](C)CO)C(=O)c2cc(NC(=O)Nc3cccc4ccccc34)ccc2O[C@@H](C)CCCCO[C@@H]1CN(C)Cc1ccccc1`
active

Write down the call the test reported for this compound. Item: `COc1ccc(S(=O)(=O)Nc2ccc3c(c2)CC(=O)N([C@H](C)CO)C[C@@H](C)[C@H](CN(C)S(=O)(=O)c2cn(C)cn2)O3)cc1`
inactive

Write down the call the test reported for this compound. Item: `C[C@H](CO)N1C[C@H](C)[C@H](CN(C)Cc2ccccc2)OCCCC[C@H](C)Oc2ccc(NC(=O)Nc3cccc4ccccc34)cc2C1=O`
inactive
